Would you mind telling me the reported % Parent remaining at 48 h of each entry?
assay: Stability study in pH 4 buffer at 25° C.; format: physicochemical; details: LCMS, normalized to internal standard
One number for each entry, in %.

>>> print(df.to_string())
                                   compound  observed
0  O=C1C2CCN(CC2)C1Cn1cc(F)c(=O)[nH]c1=O (stereo not shown) [Comparative example 3, reference compound]        18

Below are 2 compounds. Give each one its % Parent remaining at 48 h.
1. Cc1cn(CC2C(=O)C3CCN2CC3)c(=O)n(CC2C(=O)C3CCN2CC3)c1=O (stereo not shown)
2. O=C1C2CCN(CC2)C1Cn1ccc(=O)[nH]c1=O (racemic)

73
59
